test: Stability in pH 7 phosphate buffer at 0.1 mM at 100 degC after 6 hrs by HPLC-MS analysis; format: physicochemical; settings: read-out: Stability
Where a SMILES comes first, the peptide text is derived from it. Bridges are numbered along the chain shown (N, C = ends).
Quick reference: remaining at 6 h, 100 µM of the listed items.

Example molecules with recorded remaining at 6 h, 100 µM:
CC[C@H](C)[C@@H]1NC(=O)[C@@H]2CCCN2C(=O)[C@@H]2CCCN2C(=O)[C@H]([C@@H](C)CC)NC(=O)[C@H](CO)NC(=O)[C@H](CCCCN)NC(=O)[C@H]([C@@H](C)O)NC(=O)[C@@H]2CSSC[C@H](NC1=O)C(=O)N[C@@H](Cc1ccccc1)C(=O)N1CCC[C@H]1C(=O)N[C@@H](CC(=O)O)C(=O)NCC(=O)N[C@@H](CCCNC(=N)N)C(=O)N2 = > 80%
CC[C@H](C)[C@@H]1NC(=O)[C@@H]2CCCN2C(=O)[C@@H]2CCCN2C(=O)[C@H]([C@@H](C)CC)NC(=O)[C@H](CO)NC(=O)[C@H](CCCCN)NC(=O)[C@H]([C@@H](C)O)NC(=O)[C@@H]2CSSC[C@H](NC1=O)C(=O)N[C@@H](CCCCN)C(=O)N[C@@H](CCCNC(=N)N)C(=O)N1CCC[C@H]1C(=O)N1CCC[C@H]1C(=O)NCC(=O)N[C@@H](Cc1ccccc1)C(=O)N[C@@H](CO)C(=O)N1CCC[C@H]1C(=O)N[C@@H](CC(C)C)C(=O)N2 (cyclo(CKRPPGFSPLCTKSIPPI); disulfide 1-11) = > 80%

Could you now look at the following molecule, please?
So for CC[C@H](C)[C@@H]1NC(=O)[C@@H]2CCCN2C(=O)[C@@H]2CCCN2C(=O)[C@H]([C@@H](C)CC)NC(=O)[C@H](CO)NC(=O)[C@H](CCCCN)NC(=O)[C@H]([C@@H](C)O)NC(=O)[C@@H](N)CSSC[C@@H](C(=O)N[C@@H](CCCCN)C(=O)N[C@@H](CCCNC(=N)N)C(=O)N2CCC[C@H]2C(=O)N2CCC[C@H]2C(=O)NCC(=O)N[C@@H](Cc2ccccc2)C(=O)N[C@@H](CO)C(=O)N2CCC[C@H]2C(=O)N[C@@H](CC(C)C)C(=O)O)NC1=O (H-CTKSIPPICKRPPGFSPL-OH; disulfide 1-9) , the logged remaining at 6 h, 100 µM turned out to be > 80%

----------
assay: Stability of the compound assessed as pepsin (unknown origin)-mediated compound degradation at enzyme to peptide ratio of 1:50 after 6 hrs by HPLC-MS analysis; type: ADME; settings: human, 6 h
Where a SMILES comes first, the peptide text is derived from it. Bridges are numbered along the chain shown (N, C = ends).
parameter_measured: Stability

CC[C@H](C)[C@@H]1NC(=O)[C@@H]2CCCN2C(=O)[C@@H]2CCCN2C(=O)[C@H]([C@@H](C)CC)NC(=O)[C@H](CO)NC(=O)[C@H](CCCCN)NC(=O)[C@H]([C@@H](C)O)NC(=O)[C@@H]2CSSC[C@H](NC1=O)C(=O)N[C@@H](CCCCN)C(=O)N[C@@H](CCCNC(=N)N)C(=O)N1CCC[C@H]1C(=O)N1CCC[C@H]1C(=O)NCC(=O)N[C@@H](Cc1ccccc1)C(=O)N[C@@H](CO)C(=O)N1CCC[C@H]1C(=O)N[C@@H](CC(C)C)C(=O)N2 (cyclo(CKRPPGFSPLCTKSIPPI); disulfide 1-11) = Stable
CC[C@H](C)[C@@H]1NC(=O)[C@@H]2CCCN2C(=O)[C@@H]2CCCN2C(=O)[C@H]([C@@H](C)CC)NC(=O)[C@H](CO)NC(=O)[C@H](CCCCN)NC(=O)[C@H]([C@@H](C)O)NC(=O)[C@@H](N)CSSC[C@@H](C(=O)N[C@@H](CCCCN)C(=O)N[C@@H](CCCNC(=N)N)C(=O)N2CCC[C@H]2C(=O)N2CCC[C@H]2C(=O)NCC(=O)N[C@@H](Cc2ccccc2)C(=O)N[C@@H](CO)C(=O)N2CCC[C@H]2C(=O)N[C@@H](CC(C)C)C(=O)O)NC1=O (H-CTKSIPPICKRPPGFSPL-OH; disulfide 1-9) = Unstable
CC(C)C[C@@H]1NC(=O)[C@@H]2CCCN2C(=O)[C@H](CO)NC(=O)[C@H](Cc2ccccc2)NC(=O)CNC(=O)[C@@H]2CCCN2C(=O)[C@@H]2CCCN2C(=O)[C@H](CCCNC(=N)N)NC(=O)[C@H](CCCCN)NC(=O)[C@@H]2CSSC[C@H](NC1=O)C(=O)N[C@@H](Cc1ccccc1)C(=O)N1CCC[C@H]1C(=O)N[C@@H](CC(=O)O)C(=O)NCC(=O)N[C@@H](CCCNC(=N)N)C(=O)N2 (cyclo(CFPDGRCKRPPGFSPL); disulfide 1-7) = Stable
CC(C)C[C@@H]1NC(=O)[C@@H]2CCCN2C(=O)[C@H](CO)NC(=O)[C@H](Cc2ccccc2)NC(=O)CNC(=O)[C@@H]2CCCN2C(=O)[C@@H]2CCCN2C(=O)[C@H](CCCNC(=N)N)NC(=O)[C@H](CCCCN)NC(=O)[C@@H](NC(=O)[C@H](CCCNC(=N)N)NC(=O)CN)CSSC[C@@H](C(=O)N[C@@H](Cc2ccccc2)C(=O)N2CCC[C@H]2C(=O)N[C@@H](CC(=O)O)C(=O)O)NC1=O (H-GRCKRPPGFSPLCFPD-OH; disulfide 3-13) = Unstable
